Target: Tyrosine-protein phosphatase non-receptor type 22 (Homo sapiens, UniProt Q9Y2R2)
Sequence (Q9Y2R2 whole entry): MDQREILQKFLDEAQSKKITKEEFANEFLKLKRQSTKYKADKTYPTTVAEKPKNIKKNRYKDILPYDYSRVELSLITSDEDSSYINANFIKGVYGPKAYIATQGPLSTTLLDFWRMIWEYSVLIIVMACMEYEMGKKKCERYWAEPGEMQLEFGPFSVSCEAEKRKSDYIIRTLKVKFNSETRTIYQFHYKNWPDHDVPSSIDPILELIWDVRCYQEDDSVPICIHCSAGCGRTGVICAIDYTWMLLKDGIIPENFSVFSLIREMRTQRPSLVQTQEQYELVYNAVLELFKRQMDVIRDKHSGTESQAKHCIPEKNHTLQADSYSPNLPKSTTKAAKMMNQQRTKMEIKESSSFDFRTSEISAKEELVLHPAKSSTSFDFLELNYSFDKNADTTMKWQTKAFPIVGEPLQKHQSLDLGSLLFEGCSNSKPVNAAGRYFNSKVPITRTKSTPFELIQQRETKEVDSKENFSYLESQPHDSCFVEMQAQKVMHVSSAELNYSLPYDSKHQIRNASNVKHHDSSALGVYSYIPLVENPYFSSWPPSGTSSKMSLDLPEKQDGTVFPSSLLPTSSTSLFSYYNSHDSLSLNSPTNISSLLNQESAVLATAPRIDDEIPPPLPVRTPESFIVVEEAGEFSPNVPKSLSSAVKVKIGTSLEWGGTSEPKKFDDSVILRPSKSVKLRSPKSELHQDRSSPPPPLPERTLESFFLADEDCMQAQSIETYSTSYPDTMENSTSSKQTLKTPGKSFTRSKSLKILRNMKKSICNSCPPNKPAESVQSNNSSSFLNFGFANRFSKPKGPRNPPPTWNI
Test: Inhibition of LYP (unknown origin) at 25 uM using pNPP as substrate relative to control
Readout: inhibition at 25 µM (%)
Form entry: value (%) — number only.

Consider the reported inhibition at 25 µM for these compounds:
O=C1COc2ccc(C(=O)/C=C/c3ccc(C(=O)O)cc3)cc2N1; 33.2
COc1ccccc1C(=O)/C=C/c1ccc(C(=O)O)cc1; 13
O=C(O)c1ccc(/C=C/C(=O)c2ccc(F)cc2)cc1; 11.4

Please find the next compound below.
Give the reported inhibition at 25 µM for COc1cc(OC)cc(C(=O)/C=C/c2ccc(C(=O)O)cc2)c1 (system: Tyrosine-protein phosphatase non-receptor type 22 (Homo sapiens, UniProt Q9Y2R2)). 4.6
